- System: Staphylococcus aureus
- assay: Antibacterial activity against methicillin-sensitive Staphylococcus aureus 12-5 after 18 to 24 hrs by standard twofold serial dilution method
- Format: functional
Provide the reported log10 of MIC of each item.
Base-10 log of MIC, unit µg/mL.

Exercise: What does the data say about its log10 of MIC? Entry: COc1c(N2C[C@@H]3CCCN[C@@H]3C2)c(F)cc2c(=O)c(C(=O)O)cn(C3CC3)c12
Key: -1.82

Exercise: Now give it for NC[C@@H]1/C(=N\OCc2ccccc2)CN1c1cc2c(cc1F)c(=O)c(C(=O)O)cn2[C@@H]1C[C@@H]1F too.
Key: 0.00

Exercise: Now give it for CCO/N=C1/CN(c2c(F)cc3c(=O)c(C(=O)O)cn([C@@H]4C[C@@H]4F)c3c2OC)CC1CN (stereo partly specified) too.
Key: -0.60

Exercise: Now give it for CCO/N=C1/CN(c2cc3c(cc2F)c(=O)c(C(=O)O)cn3[C@@H]2C[C@@H]2F)[C@@H]1CN too.
Key: -1.52

Exercise: Now give it for CO/N=C1/CN(c2c(F)cc3c(=O)c(C(=O)O)cn([C@@H]4C[C@@H]4F)c3c2Cl)CC1CN (stereo partly specified) too.
Key: -0.90

Exercise: Now give it for NC[C@@H]1/C(=N\OCc2ccccc2)CN1c1nc2c(cc1F)c(=O)c(C(=O)O)cn2[C@@H]1C[C@@H]1F too.
Key: -0.60

Exercise: Now give it for CO/N=C1/CN(c2cc3c(cc2F)c(=O)c(C(=O)O)cn3[C@@H]2C[C@@H]2F)[C@H]1CN too.
Key: -0.30

Exercise: Now give it for CCO/N=C1/CN(c2nc3c(cc2F)c(=O)c(C(=O)O)cn3[C@@H]2C[C@@H]2F)[C@H]1CN too.
Key: -0.30

Exercise: Now give it for CO/N=C1/CN(c2cc3c(cc2F)c(=O)c(C(=O)O)cn3[C@@H]2C[C@@H]2F)[C@@H]1CN too.
Key: -0.30

Exercise: Now give it for CO/N=C1/CN(c2nc3c(cc2F)c(=O)c(C(=O)O)cn3[C@@H]2C[C@@H]2F)CC1CN (stereo partly specified) too.
Key: -0.90

Exercise: Now give it for CO/N=C1/CN(c2nc3c(cc2F)c(=O)c(C(=O)O)cn3[C@@H]2C[C@@H]2F)[C@H]1CN too.
Key: -1.22

Exercise: Now give it for NC[C@H]1/C(=N\OCc2ccccc2)CN1c1cc2c(cc1F)c(=O)c(C(=O)O)cn2[C@@H]1C[C@@H]1F too.
Key: -0.90

Exercise: Now give it for C[C@H]1COc2c(N3CCN(C)CC3)c(F)cc3c(=O)c(C(=O)O)cn1c23.C[C@H]1COc2c(N3CCN(C)CC3)c(F)cc3c(=O)c(C(=O)O)cn1c23.O too.
Key: -0.90

Exercise: Now give it for CCO/N=C1/CN(c2cc3c(cc2F)c(=O)c(C(=O)O)cn3[C@@H]2C[C@@H]2F)[C@H]1CN too.
Key: -0.90

Exercise: Now give it for CO/N=C1/CCN(c2cc3c(cc2F)c(=O)c(C(=O)O)cn3[C@@H]2C[C@@H]2F)CC1N (stereo partly specified) too.
Key: -0.30
